Target: MLTK (human)
Experiment: radiometric filter-binding kinase assay, Kinase HotSpot
Settings: compound 0.5 µM; ATP 10 µM
property.name: residual activity (%)
Quick reminder: number only, in %, skip the unit.

- structure: "Oc1ccc(Nc2nc(-c3ccc(Cl)cc3)cs2)cc1"
  unit.annotation: "%"
  residual activity: 92.7

For COc1cc2ncc(-c3ccccc3)nc2cc1OC on MLTK (human), measured residual activity was 94.7

For CN(C)C[C@H]1CCn2c(c(C3=C(c4cn(C)c5ccccc45)C(=O)NC3=O)c3ccccc32)C1 on MLTK (human), measured residual activity was 87.3

For O=C1NC(=O)C(c2c[nH]c3ccccc23)=C1c1c[nH]c2ccccc12 on MLTK (human), measured residual activity was 107

For CC(C)c1nn(-c2c(Cl)cccc2Cl)c2nc(Cc3ccc(OCCO)cc3)nc(O)c12 on MLTK (human), measured residual activity was 94.4

For CCN(CC)CCCCN1c2ccccc2Oc2ccc(Cl)cc21 on MLTK (human), measured residual activity was 94.4

For Nc1nnc2[nH]c3ccccc3nc1-2 on MLTK (human), measured residual activity was 96.3

For O=C(O)/C=C/c1cc(Br)c(Br)c(Br)c1Br on MLTK (human), measured residual activity was 89.4

For O=C1Cc2c([nH]c3ccc(Br)cc23)-c2ccccc2N1 on MLTK (human), measured residual activity was 88.5

For O=C(Nc1cccc(Nc2cc(Nc3cccc(C(F)(F)F)c3)ncn2)c1)C1CC1 on MLTK (human), measured residual activity was 97.1

For Cn1sc(=O)n(Cc2ccccc2)c1=O on MLTK (human), measured residual activity was 100

For CC(C)[C@H](CO)Nc1nc(Nc2cc(N)cc(Cl)c2)c2ncn(C(C)C)c2n1 on MLTK (human), measured residual activity was 92.3

For Cn1nc2c3c(cccc31)C(=O)c1ccccc1-2 on MLTK (human), measured residual activity was 83.1

For O=C(CCCc1ccc(-c2ccccc2F)cc1)Nc1ccc(O)cc1 on MLTK (human), measured residual activity was 97.8

Origin of the recorded values: the kinase profiling compilation of Christmann-Franck et al. (2016)
